- target.of.assay: T1, human PCSK9 (PCSK9 antigen, SEQ ID NO. 53) (human, UniProt A8T644 31-152; Q8NBP7 153-692, Biotin-labelled on amines in the MSD-SET and sorting experiments; positions not given.)
- T1 construct: Biotin-labelled in MSD-SET; also called PCSK9-WT; PCSK9 protein
- measurement.notes: flow cytometry, PCSK9 left on CHO-LDLR cells (anti-His-FITC) after premix with 0.1 nM antibody
The entries below are paired with their reported Fluorescence Signal Value.
Just the number, please, no unit attached.

{"columns": ["binder", "Fluorescence Signal Value"],
 "data": [
  ["ADI-10086 (antibody, human IgG2, kappa, V domains shown, IgG) VH: QLQLQESGPGLVKPSETLSLTCTVSGGSIRSSAYYWGWIRQPPGKGLEWIGSINYRGSTYYNPSLKSRVTISVDTSKNQFSLKLSSVTAADTAVYYCARENSGVVPAAGPNWFGPWGQGTLVTVSS VL: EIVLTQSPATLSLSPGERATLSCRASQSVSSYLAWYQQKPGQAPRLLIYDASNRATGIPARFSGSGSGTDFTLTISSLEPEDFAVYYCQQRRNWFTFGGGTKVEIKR", 6600]
]}

We now examine a further binder.
Note to self: Fluorescence Signal Value recorded for ADI-10087 (antibody, human IgG2, kappa, V domains shown, also called anti-PCSK antibody of the invention) VH: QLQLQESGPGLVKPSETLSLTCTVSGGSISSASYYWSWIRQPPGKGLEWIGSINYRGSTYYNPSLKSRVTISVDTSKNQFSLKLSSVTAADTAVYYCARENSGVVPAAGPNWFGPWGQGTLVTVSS VL: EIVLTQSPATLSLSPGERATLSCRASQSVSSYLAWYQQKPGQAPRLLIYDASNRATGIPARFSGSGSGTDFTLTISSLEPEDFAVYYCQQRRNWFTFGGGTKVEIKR was 6860

The reported measurements were obtained from patent US20200087416A1.
